Target: human soluble guanylate cyclase alpha 1 and beta 1 subunits (sGC) stably expressed in Chinese hamster ovary cells (Homo sapiens, UniProt Q02108+Q02153)
Construct: expressed in transfected cells; host or cells: Chinese hamster ovary cells, stably transfected
Sequence (Q02108 1-690 partner): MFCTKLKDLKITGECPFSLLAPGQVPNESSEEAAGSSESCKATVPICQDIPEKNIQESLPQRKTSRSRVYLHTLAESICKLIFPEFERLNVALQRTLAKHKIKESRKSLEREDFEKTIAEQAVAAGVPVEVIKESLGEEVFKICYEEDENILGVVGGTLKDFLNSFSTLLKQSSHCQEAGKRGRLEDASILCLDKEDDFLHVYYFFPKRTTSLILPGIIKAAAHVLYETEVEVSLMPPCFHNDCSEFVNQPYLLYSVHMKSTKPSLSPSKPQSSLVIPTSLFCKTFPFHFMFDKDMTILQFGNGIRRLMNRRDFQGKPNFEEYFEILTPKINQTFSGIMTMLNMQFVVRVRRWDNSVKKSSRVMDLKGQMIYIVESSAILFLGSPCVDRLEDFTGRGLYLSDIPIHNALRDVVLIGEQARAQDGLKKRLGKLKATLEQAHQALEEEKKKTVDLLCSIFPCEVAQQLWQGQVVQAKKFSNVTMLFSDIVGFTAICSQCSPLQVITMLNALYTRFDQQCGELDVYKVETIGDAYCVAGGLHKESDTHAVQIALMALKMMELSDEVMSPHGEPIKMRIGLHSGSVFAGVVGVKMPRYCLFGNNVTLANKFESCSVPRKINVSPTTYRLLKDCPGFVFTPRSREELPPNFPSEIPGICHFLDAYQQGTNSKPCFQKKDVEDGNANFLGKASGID
Sequence (Q02153 1-619): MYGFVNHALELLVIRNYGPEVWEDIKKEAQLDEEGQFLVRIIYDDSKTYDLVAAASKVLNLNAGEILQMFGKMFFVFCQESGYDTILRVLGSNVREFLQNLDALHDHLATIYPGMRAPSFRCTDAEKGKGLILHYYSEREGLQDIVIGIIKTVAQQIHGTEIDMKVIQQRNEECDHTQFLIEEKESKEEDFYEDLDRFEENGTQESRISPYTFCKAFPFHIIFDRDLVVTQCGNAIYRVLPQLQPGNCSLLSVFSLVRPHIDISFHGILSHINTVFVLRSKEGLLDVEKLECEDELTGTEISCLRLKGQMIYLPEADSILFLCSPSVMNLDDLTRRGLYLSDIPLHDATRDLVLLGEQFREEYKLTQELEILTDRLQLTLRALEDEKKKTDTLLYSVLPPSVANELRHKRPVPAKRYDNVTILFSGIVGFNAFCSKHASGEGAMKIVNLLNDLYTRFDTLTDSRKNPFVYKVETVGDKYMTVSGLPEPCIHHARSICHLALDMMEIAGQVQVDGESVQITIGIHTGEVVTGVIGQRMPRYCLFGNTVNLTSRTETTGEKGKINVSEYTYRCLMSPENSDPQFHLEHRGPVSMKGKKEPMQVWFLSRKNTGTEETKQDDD
Assay: sGC cellular activator assay: cGMP in CHO cells expressing human sGC, preincubated with ODQ
Format: cell-based
Conditions: 40 microM ODQ preincubation, 30 min at room temperature, presence or absence of 50% human serum not given, read-out: EC50 nM, Activity of Compounds in Cellular Assay
Label key: YES means EC50 under 50 nM; NO means EC50 of 50 nM or more.

Just wondering, is EC50 of CCN(C)C(=O)c1ccc(COc2ccc(C)cc2-c2csc(N3C[C@H]4CC[C@@H](C3)[C@H]4C(=O)O)n2)c(C)c1 [Compound 303] below 50 nM?
YES

Just wondering, is EC50 of Cc1ccc(OCc2ccc(C(=O)N3CCN(C)C(=O)C3)c(C)c2)c(-c2csc(N3C[C@H]4CC[C@@H](C3)[C@H]4C(=O)O)n2)c1 [Compound 286] below 50 nM?
YES

Just wondering, is EC50 of Cc1ccc(OCc2ccc(C(=O)N(C)Cc3ccn(C)n3)cc2C)c(-c2csc(N3C[C@H]4CC[C@@H](C3)[C@H]4C(=O)O)n2)c1 [Compound 343] below 50 nM?
YES

Just wondering, is EC50 of Cc1ccc(OCc2ccc(C(=O)N3CCCCC3)cc2C)c(-c2csc(N3CCCC(C)(C(=O)O)CC3)n2)c1 (stereo not drawn) [Compound 229] below 50 nM?
NO

Just wondering, is EC50 of COCCCN(C)C(=O)c1ccc(COc2ccc(C)cc2-c2csc(N3C[C@H]4CC[C@@H](C3)[C@H]4C(=O)O)n2)c(C)c1 [Compound 338] below 50 nM?
YES

Just wondering, is EC50 of Cc1ccc(OCc2ccc(C(=O)N3CCCC(C)(O)C3)cc2C)c(-c2csc(N3C[C@H]4CC[C@@H](C3)[C@H]4C(=O)O)n2)c1 (stereo partly drawn) [Compound 336] below 50 nM?
NO

src = patent US8815857B2
